target-system: MPO (purified from human polynuclear leukocytes) (Homo sapiens)
Construct: purified from human polynuclear leukocytes; purchased Calbiochem/EMD Biosciences; host or cells: human polynuclear leukocytes (natural source)
Sequence (P05164 279-745 limits assumed): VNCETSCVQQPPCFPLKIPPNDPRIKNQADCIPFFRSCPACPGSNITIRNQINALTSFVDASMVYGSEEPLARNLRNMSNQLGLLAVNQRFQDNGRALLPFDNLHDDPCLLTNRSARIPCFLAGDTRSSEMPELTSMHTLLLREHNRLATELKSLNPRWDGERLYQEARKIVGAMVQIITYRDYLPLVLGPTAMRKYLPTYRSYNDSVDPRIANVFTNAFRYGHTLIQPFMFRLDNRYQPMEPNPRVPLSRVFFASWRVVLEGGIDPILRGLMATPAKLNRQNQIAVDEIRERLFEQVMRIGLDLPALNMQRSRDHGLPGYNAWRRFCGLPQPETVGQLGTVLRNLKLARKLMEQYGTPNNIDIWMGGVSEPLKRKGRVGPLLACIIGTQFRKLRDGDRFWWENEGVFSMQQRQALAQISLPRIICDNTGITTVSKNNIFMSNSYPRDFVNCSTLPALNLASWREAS
Sequence (P05164 165-273 limits assumed): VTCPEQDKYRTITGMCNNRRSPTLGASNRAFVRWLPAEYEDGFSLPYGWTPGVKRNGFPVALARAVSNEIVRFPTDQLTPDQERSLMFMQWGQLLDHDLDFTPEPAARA
method-summary: MPO Amplex Red Activity Assay
Format: biochemical
experimental-setup: Table 1, 2 μM H2O2, pH 7.4
Structures can show the parent of a compound that is named as a salt.
recorded-endpoint: MPO kinact/Ki

Observe how each entry below is paired with its result.
compound: COc1ccc(Cl)cc1-c1cc(=O)[nH]c(=S)n1CC1CCNCC1 [Example 132, hydrochloride]
recorded-result: 3840 1/s per M

compound: COCCn1c(-c2cccn2C)cc(=O)[nH]c1=S [Example 281]
recorded-result: 1060 1/s per M

compound: COCCn1c(-c2nc3ccccc3s2)cc(=O)[nH]c1=S [Example 75]
recorded-result: 2040 1/s per M

compound: COc1ccc(-c2cc(=O)[nH]c(=S)n2CCNC(N)=O)c(OC)c1 [Example 223]
recorded-result: 3000 1/s per M

compound: COc1ccc(-c2cc(=O)[nH]c(=S)n2Cc2ccncc2)c(OC)c1 [Example 232]
recorded-result: 4520 1/s per M

Req: Entry COc1ccc(OC)c(-c2cc(=O)[nH]c(=S)n2CCN=C(N)N)c1 [Example 121, hydrochloride] has what MPO kinact/Ki?
Resp: 15800 1/s per M

Req: Now consider COc1ccc(-c2cc(=O)[nH]c(=S)n2CC2CCNC2)c(OC)c1 (stereo not shown) [Example 212, hydrochloride] and answer again.
Resp: 7590 1/s per M
